assay: Aqueous solubility of raltegravir at given pH; type: physicochemical; settings: aqueous buffer; pH range of 1-6
PROPERTY_NAME: solubility (µg/mL)
Numbers only, in µg/mL.

query: What does the data say about its solubility? Entry: `Cc1nnc(C(=O)NC(C)(C)c2nc(C(=O)NCc3ccc(F)cc3)c(O)c(=O)n2C)o1`
result: 20
